Assay remarks: 4×4 Latin square comparison of i.v., oral and suppository administration (GC/MS plasma levels)
Assay context: monkey, plasma, iv, 0.5 mg/kg
Property: concentration at 0.1 h; scope: individual molecules
Just the number please, in ng/mL, no unit attached.

# Molecule, Scale unit, concentration at 0.1 h
data = [
    ("CCCCCc1cc(O)c2c(c1)OC(C)(C)[C@@H]1CCC(C)=C[C@@H]21 [delta-9-tetrahydrocannabinol]", "ng/mL", 1680),
]

# input for lookup
Ask: Provide concentration at 0.1 h value for the following molecule: `CCCCCc1cc(OC(=O)CCC(=O)O)c2c(c1)OC(C)(C)[C@@H]1CCC(C)=C[C@@H]21`
Result: 2060
